Kd reference
biological target: RSV prefusion F (preF), subtype A (respiratory syncytial virus, subtype A, UniProt P03420 26-513); assay: BLI, IgG
Please give a number only; it is taken to be in nM.

>>> quantitativereadout("ADI-21041 (antibody, V domains shown) VH: EVQLVESGGVVVQPGGSLRLSCAASGFTFDDYTMHWVRQAPGKGLEWVSLISWVGDTTYYADSVKGRFTISRDNSKNSLYLQMNSLRTEDTALYYCAKGGYYDGSGYYYFDYWGQGTLVTVSS VL: DIRLTQSPSSLSASVGDRVTITCRASQSISNYLNWYQQKPGKAPKLLMYAASSLQSGVPSRFSGSGSGTDFTLTISSLQPEDFATYSCQQSYSTPYTFGQGTKVEIK")
7.3
>>> quantitativereadout("ADI-14425 (antibody, V domains shown, also called Ab 91) VH: QVQLQESGPGLVKPSETLSLTCTVSGGSVRSGSYYWSWIRQPPGKALEWIGYIYYSGSTNYNPALESRVTISVDTSKNQFSLMLSSVTAADTAVYYCARSAEGLARLYYFDHWGQGTLVTVSS VL: QSVLIQPASVSGSPGQSITISCTGTSSDVGGYNYVSWYQQHPGKAPKLMIHDVSNRPSGVSNRFSGSKSGNTASLTISGLQAEDEADYYCSTYRSSNTLVVFGGGTKLTVL")
48.1
>>> quantitativereadout("ADI-21047 (antibody, V domains shown) VH: QVQLQQWGAGLLKPSETLSLTCAVYGGSFSGKYWSWIRQPPGKGLEWIGEFNHDGTTYYNPSLKSRVTISADTPKNQFSLTLHSVTAADTAVYYCARLTILSDWGQGTLVTVSS VL: DIRMTQSPSSLSASVGDRVTITCQASQDISNYLHWYQQKPGKAPKLLIYDASNLETGVPSRFSGSGSGTDFTFTIHSLQPEDLATYYCQQYYDLPRTFGQGTKLEIK")
2.11
>>> quantitativereadout("ADI-14407 (antibody, V domains shown, also called Ab 73) VH: QVQLVQSGGGVVQPGRSLRLSCAASGFTFSSYGMHWVRQAPGKGLEWVAVIWFDGNNKEYADSVKGRFAISRDNSKNTLYLQMNSLRAEDTAVYYCARDLIPVTIFGVVNPYSYYGMDVWGQGTTVTVSS VL: EIVMTQSPSSLSASVGDRVTITCRASQSISTYLNWYQQKPGTAPKLLIYAASSLESGVPSRLSGSGSGTEFILTISSLQREDFATYYCQQSYSTPPTFGQGTKVEIK")
6.28

Please find the next binder below.
// Kd lookup, binder = ADI-14604 (antibody, V domains shown) VH: EVQLLESGGGLVQPGGSLRLSCSASGFTFNNYVMHWVRQAPGKGLEDASAISSNGVSTNYADSVKGRFTISRDNSKNTLYLQMRSLRAEDTALYYCVRDLIPHDSSAYYGYHGMDVWGQGTTVTVSS VL: QPVLTQPPSASGTPGQSVTISCSGSSSNIGTNVVNWYQQLPGTAPKLLIYSNDLRPSGVPDRFSGSKSGTSASLAISGLQSEDEANYYCAAWDDSLNGVLFGGGTKLTVL , result: 2.44
